assayed.system: canine TRPM8 (Canis lupus familiaris)
Sequence (Q1A7N1 1-1104): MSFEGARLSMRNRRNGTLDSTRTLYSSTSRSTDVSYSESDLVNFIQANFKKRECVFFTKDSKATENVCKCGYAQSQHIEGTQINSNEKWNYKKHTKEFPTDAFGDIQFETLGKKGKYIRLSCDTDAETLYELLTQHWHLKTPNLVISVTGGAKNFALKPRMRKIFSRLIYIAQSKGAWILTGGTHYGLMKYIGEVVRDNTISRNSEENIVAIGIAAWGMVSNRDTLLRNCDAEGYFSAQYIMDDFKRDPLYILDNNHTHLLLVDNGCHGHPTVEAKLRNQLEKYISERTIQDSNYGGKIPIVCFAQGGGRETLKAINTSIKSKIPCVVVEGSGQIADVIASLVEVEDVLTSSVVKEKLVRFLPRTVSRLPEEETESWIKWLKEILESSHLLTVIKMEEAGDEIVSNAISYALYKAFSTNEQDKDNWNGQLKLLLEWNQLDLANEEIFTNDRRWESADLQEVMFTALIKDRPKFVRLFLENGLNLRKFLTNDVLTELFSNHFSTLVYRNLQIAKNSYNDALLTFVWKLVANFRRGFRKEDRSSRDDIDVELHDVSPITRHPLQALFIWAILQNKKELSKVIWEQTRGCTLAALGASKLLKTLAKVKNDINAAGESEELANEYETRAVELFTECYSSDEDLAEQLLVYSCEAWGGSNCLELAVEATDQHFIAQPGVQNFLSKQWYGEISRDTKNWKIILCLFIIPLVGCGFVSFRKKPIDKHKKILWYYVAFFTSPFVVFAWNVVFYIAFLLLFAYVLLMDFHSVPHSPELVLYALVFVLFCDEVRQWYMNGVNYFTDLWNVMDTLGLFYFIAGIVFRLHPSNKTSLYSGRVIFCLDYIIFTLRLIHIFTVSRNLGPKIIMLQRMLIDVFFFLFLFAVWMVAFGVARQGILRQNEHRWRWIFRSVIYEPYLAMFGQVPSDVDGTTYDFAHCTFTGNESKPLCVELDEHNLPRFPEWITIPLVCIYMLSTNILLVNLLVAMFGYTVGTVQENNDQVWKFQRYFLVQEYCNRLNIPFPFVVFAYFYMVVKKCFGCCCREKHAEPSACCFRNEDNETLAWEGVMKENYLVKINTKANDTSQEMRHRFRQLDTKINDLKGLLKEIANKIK
assay: In Vitro Canine TRPM8 Functional Assay (Ca2+-sensitive fluorescent dye, icilin activation, FLIPR/FDSS)
condition.details: HEK293 cells stably expressing canine TRPM8, icilin activation; eight-point dose-response
pIC50: −log10 of the molar value.
assay.endpoint: pIC50

INSERT INTO assay_data (compound, obs_value) VALUES
  ('CCOP(=O)(OCC)C(Cc1cccc(Cl)c1)c1sc2ccccc2c1Cl (stereo not drawn)', 6.94),
  ('CCOP(=O)(OCC)C(Cc1ccc(C(F)(F)F)cc1F)c1sc2ccccc2c1Br (stereo not drawn)', 7.05),
  ('CCC(C)P(=O)(C(C)CC)C(OCc1ccc(F)c(F)c1)c1sc2ccccc2c1Br (stereo not drawn)', 7.04),
  ('CCOP(=O)(OCC)C(Cc1cc(OC)c(Cl)cc1F)c1sc2ccccc2c1Br (stereo not drawn)', 7.09),
  ('CCOP(=O)(OCC)C(Cc1ccc(F)cc1C(F)(F)F)c1sc2ccccc2c1Br (stereo not drawn)', 6.91),
  ('COc1cc(CC(c2sc3ccccc3c2Br)P(=O)(OC(C)C)OC(C)C)c(F)cc1Cl (stereo not drawn)', 7.07),
  ('CC(C)OP(=O)(OC(C)C)C(Cc1c(F)c(F)c(O)c(F)c1F)c1sc2ccccc2c1Br (stereo not drawn)', 6.81),
  ('CC(C)OP(=O)(OC(C)C)C(Cc1cc(F)cc(C(F)(F)F)c1)c1sc2ccccc2c1Cl (stereo not drawn)', 7.02),
  ('CCOP(=O)(OCC)C(Cc1cc(Cl)ccc1F)c1sc2ccccc2c1Cl (stereo not drawn)', 7.15),
  ('CC(C)OP(=O)(OC(C)C)C(Cc1ccc(Cl)c(F)c1)c1sc2ccccc2c1Cl (stereo not drawn)', 7.10),
  ('CCOP(=O)(OCC)C(Cc1c(F)c(F)c(OC)c(F)c1F)c1sc2ccccc2c1Br (stereo not drawn)', 7.22),
  ('COc1c(F)c(F)c(CC(c2sc3ccccc3c2Br)P(=O)(OC(C)C)OC(C)C)c(F)c1F (stereo not drawn)', 7.72),
  ('CC(C)OP(=O)(OC(C)C)C(Cc1ccccc1C(F)(F)F)c1sc2ccccc2c1Cl (stereo not drawn)', 6.85),
  ('CC(C)OP(=O)(OC(C)C)C(Cc1cccc(O)c1F)c1sc2ccccc2c1Br (stereo not drawn)', 8.00),
  ('CCOP(=O)(OCC)C(Cc1cccc(C(F)(F)F)c1)c1cc2ccccc2s1 (racemic)', 6.85),
  ('CC(C)OP(=O)(OC(C)C)C(Cc1ccc(Cl)c(C(F)(F)F)c1)c1sc2ccccc2c1Cl (stereo not drawn)', 7.01),
  ('CCOP(=O)(OCC)C(Cc1ccccc1C(F)(F)F)c1sc2ccccc2c1Cl (stereo not drawn)', 6.54),
  ('CCOP(=O)(OCC)C(Cc1ccc(F)c(F)c1)c1sc2ccccc2c1-c1ccc(F)cc1 (stereo not drawn)', 6.68),
  ('CCOP(=O)(OCC)C(Cc1ccc(F)c(F)c1)c1sc2ccccc2c1-c1ccccc1F (stereo not drawn)', 6.90),
  ('CCOP(=O)(OCC)C(Cc1ccc(C(F)(F)F)cc1)c1sc2ccccc2c1Cl (stereo not drawn)', 6.90),
  ('CCOP(=O)(OCC)C(Cc1ccc(F)c(Cl)c1)c1sc2ccccc2c1Br (stereo not drawn)', 7.55),
  ('CCOP(=O)(OCC)C(Cc1ccccc1Cl)c1sc2ccccc2c1Br (stereo not drawn)', 6.90),
  ('CC(C)OP(=O)(OC(C)C)C(Cc1cc(O)c(Cl)cc1F)c1sc2ccccc2c1Br (stereo not drawn)', 7.20),
  ('CCOP(=O)(OCC)C(Cc1cc(C(F)(F)F)ccc1F)c1sc2ccccc2c1Br (stereo not drawn)', 7.00),
  ('COc1ccc(CC(c2sc3ccccc3c2Br)P(=O)(OC(C)C)OC(C)C)c(F)c1 (stereo not drawn)', 7.70),
  ('CC(C)OP(=O)(OC(C)C)C(Cc1ccc(C(F)(F)F)cc1F)c1sc2ccccc2c1Br (stereo not drawn)', 7.29),
  ('CC(C)OP(=O)(OC(C)C)C(Cc1ccc(F)c(C(F)(F)F)c1)c1sc2cccc(F)c2c1Br (stereo not drawn)', 7.48);
